methodDescription: AUC (0 to infinity) in mouse at 1 mg/kg, iv or 5 mg/kg, po
Assay type: ADME, organism-based
Set-up: dose 5 mg/kg
testParameters: in vivo
measureName: AUC(0-inf) (ng·h/mL)

# compound, AUC(0-inf), ng·h/mL
records = [
    ("CCOC(C)c1c(NC(=O)Nc2cnc(-n3nccn3)c(Cl)c2)cnc2sc(C)nc12 (stereo not drawn)", 10100),
]

a: COC(C)(C)c1c(NC(=O)Nc2cnc(-n3nccn3)c(Cl)c2)cnc2ccc(F)cc12
b: COC(C)c1c(NC(=O)Nc2cnc(-n3nccn3)c(Cl)c2)cnc2ccc(F)cc12 (stereo not drawn)
## Input Exercise: compare a and b ; which one has the greater AUC(0-inf)? Your choice should be expressed through its label.
## Output a
(a: 8200 ng·h/mL, b: 3370 ng·h/mL)
